Values from patent US20210388087A1

# TARGET UNDER TEST: T1, Human CD3eg linker (human)
# T1 construct: Single-chain construct; also called recombinant human CD3
# T1 chain: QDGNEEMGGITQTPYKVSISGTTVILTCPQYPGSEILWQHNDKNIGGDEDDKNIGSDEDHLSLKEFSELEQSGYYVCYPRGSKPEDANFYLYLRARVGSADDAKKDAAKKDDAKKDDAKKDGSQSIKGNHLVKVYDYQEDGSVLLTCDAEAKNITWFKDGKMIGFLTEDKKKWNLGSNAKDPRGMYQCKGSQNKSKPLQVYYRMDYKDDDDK
# TEST DETAILS: SPR; fold vs parent H183/L072
PROPERTY LABEL: fold change of affinity (fold)
// return numeric value only (unit: fold, not printed)

BINDER	PROPERTY LABEL	NUMBER
H183/L072 VL V94K (antibody, name in Kabat numbering, V domains shown) VH: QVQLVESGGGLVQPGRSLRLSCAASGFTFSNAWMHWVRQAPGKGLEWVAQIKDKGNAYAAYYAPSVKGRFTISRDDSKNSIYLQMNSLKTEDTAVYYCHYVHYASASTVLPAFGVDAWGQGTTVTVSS VL: DIVMTQSPLSLPVTPGEPASISCQASQELVHMNRNTYLHWYQQKPGQAPRLLIYKVSNRFPGVPDRFSGSGSGTDFTLKISRVEAEDVGVYYCAQGTSKPFTFGQGTKLEIK	fold change of affinity	0.4

Give the value of fold change of affinity reported for the following: H183/L072 VL A89D (antibody, name in Kabat numbering, V domains shown) VH: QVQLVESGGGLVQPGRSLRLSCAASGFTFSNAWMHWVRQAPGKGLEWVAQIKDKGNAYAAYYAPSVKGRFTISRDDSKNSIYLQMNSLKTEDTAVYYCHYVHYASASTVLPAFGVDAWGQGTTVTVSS VL: DIVMTQSPLSLPVTPGEPASISCQASQELVHMNRNTYLHWYQQKPGQAPRLLIYKVSNRFPGVPDRFSGSGSGTDFTLKISRVEAEDVGVYYCDQGTSVPFTFGQGTKLEIK 0

For the binder H183/L072 VL P95Q (antibody, name in Kabat numbering, V domains shown) VH: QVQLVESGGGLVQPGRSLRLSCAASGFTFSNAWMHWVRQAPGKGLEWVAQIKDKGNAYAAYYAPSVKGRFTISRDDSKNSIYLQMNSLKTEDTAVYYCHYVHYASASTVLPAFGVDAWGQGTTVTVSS VL: DIVMTQSPLSLPVTPGEPASISCQASQELVHMNRNTYLHWYQQKPGQAPRLLIYKVSNRFPGVPDRFSGSGSGTDFTLKISRVEAEDVGVYYCAQGTSVQFTFGQGTKLEIK , report fold change of affinity. 0

# return recorded fold change of affinity for input H183/L072 VL R29H (antibody, name in Kabat numbering, V domains shown) VH: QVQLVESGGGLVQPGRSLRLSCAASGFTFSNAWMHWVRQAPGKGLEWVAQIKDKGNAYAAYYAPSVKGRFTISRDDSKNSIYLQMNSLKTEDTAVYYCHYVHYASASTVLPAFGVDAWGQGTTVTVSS VL: DIVMTQSPLSLPVTPGEPASISCQASQELVHMNHNTYLHWYQQKPGQAPRLLIYKVSNRFPGVPDRFSGSGSGTDFTLKISRVEAEDVGVYYCAQGTSVPFTFGQGTKLEIK 0.8

Recall and state the measured fold change of affinity for H183/L072 VL H34L (antibody, name in Kabat numbering, V domains shown) VH: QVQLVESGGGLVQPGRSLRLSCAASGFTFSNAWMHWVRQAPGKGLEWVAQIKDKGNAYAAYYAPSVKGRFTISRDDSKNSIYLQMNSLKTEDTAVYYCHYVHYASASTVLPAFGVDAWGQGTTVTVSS VL: DIVMTQSPLSLPVTPGEPASISCQASQELVHMNRNTYLLWYQQKPGQAPRLLIYKVSNRFPGVPDRFSGSGSGTDFTLKISRVEAEDVGVYYCAQGTSVPFTFGQGTKLEIK . 0
